TARGET DESC: mouse ACVR2A (mouse, UniProt P27038 20-135, limits assumed); further: test concentration or dose not given here
Sequence (P27038 20-135 limits assumed): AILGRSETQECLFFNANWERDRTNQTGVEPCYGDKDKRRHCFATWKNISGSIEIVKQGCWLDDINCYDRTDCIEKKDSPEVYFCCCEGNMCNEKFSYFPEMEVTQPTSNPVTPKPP
ASSAY NAME: ELISA
QUANTITY: optical density (OD)
Give just the number in OD; leave the unit off.

# optical density of 367_A03 (antibody, V domains shown, Group III) VH: EVQLLESGGGLVQPGGSLRLSCAASGFTFDSYGMNWVRQAPGKGLEWVAGINYNGGYTSYADSVKGRFTISRDNSKNTLYLQMNSLRAEDTAVYYCARGANWHDTALDYWGQGTLVTVSS VL: DIQMTQSPSSLSASVGDRVTITCRASQSILTYVNWYQQKPGKAPKLLIYATTSRHSGVPSRFSGSGSGTDFTLTISSLQPEDFATYYCQQSYDSPLTFGGGTKVEIK = 2.45
